molecular target: PRMT5 (Homo sapiens); construct: purchased Viva (custom protein); experiment: PRMT5 biochemical IC50 assay with SAM as cofactor; settings: PRMT5, SAM as cofactor; read-out: SAM IC50
pIC50: −log10 of the molar value.
In this section we review reported pIC50 values for a set of molecules.

- molecule: "C[C@@H]1CC[C@@H]([C@H]2CCC[C@@H](O)C2)N(C(=O)C(=O)Nc2cncc(C(N)=O)c2)C1 (single isomer, unassigned)"
  pIC50: "6.30 to 7.30"
- molecule: "CCc1cc(NC(=O)C(=O)N2C[C@@H](C)CC[C@@H]2c2ccc(CCN(C)C)cc2)cnc1N"
  pIC50: "6.30 to 7.30"
- molecule: "CCc1cc(NC(=O)C(=O)N2C[C@@H](C)CC[C@@H]2c2ccc(N3CCN(C)[C@@H](C)C3)nc2)cnc1N (single isomer, unassigned)"
  pIC50: "6.30 to 7.30"
- molecule: "Cc1cc(NC(=O)C(=O)N2CCCCC2c2cccc3scnc23)cnc1N (stereo not drawn)"
  pIC50: "6.30 to 7.30"
- molecule: "C[C@@H]1CC[C@@H](c2ccc(F)c(F)c2)N(C(=O)C(=O)Nc2cncc(C(N)=O)c2)C1 (single isomer, unassigned) [Compound 474]"
  pIC50: "< 6.30"

Next, consider the following molecule.
Identify measured pIC50 corresponding to CNC(=O)N1CCC([C@@H]2CC[C@@H](C)CN2C(=O)C(=O)Nc2cnc(N)c(C)c2)CC1 (racemic)
6.30 to 7.30

----------
test system: HAP1 MTAP-deleted cell line; assay: SDMA in-cell western assay, HAP1 MTAP-deleted; format: cell-based; settings: SDMA in-cell western, HAP1 MTAP-deleted; read-out: HAP1 MTAP deleted IC50
pIC50: −log10 of the molar value.
Parameter: pIC50. Scope: all listed entries.

Recorded results for 2 compounds are shown here.
- compound: "COc1ncc(NC(=O)C(=O)N2CCCCC2C2CCCCC2)cc1C(N)=O (single isomer, unassigned)"
  pIC50: "< 6.00"
- compound: "COc1ncc(NC(=O)C(=O)N2CCCCC2c2ccccc2)cc1C(N)=O (single isomer, unassigned)"
  pIC50: "< 6.00"

// next entry
Give the reported value of pIC50 for this record: [H][C@@]1([C@]2([H])C[C@]3(C[C@H](O)C3)C2)CC[C@@H](C)CN1C(=O)C(=O)Nc1cnc(N)c(C)c1 (single isomer, unassigned)
< 6.00

----------
In this section we review reported pIC50 values for a set of compounds.
system: HAP1 MTAP-deleted cell line; assay: Viability assay, MTAP-deleted cell line; format: cell-based; conditions: viability assay, MTAP-deleted cell line; read-out: HAP1 MTAP deleted viability
pIC50: −log10 of the molar value.

- compound: "CC(=O)N1CCC(c2cccc(C3CCCCN3C(=O)C(=O)Nc3cncc(C)c3)c2)CC1 (single isomer, unassigned) [Compound 78]"
  pIC50: "< 5.00"
- compound: "Cn1nccc1C1CCCCN1C(=O)C(=O)Nc1cncc(C(N)=O)c1 (single isomer, unassigned) [Compound 46]"
  pIC50: "< 5.00"

Next up:
Find pIC50 for CC(=O)N1CCC(c2cccc(C3CCCCN3C(=O)C(=O)Nc3cnc(N)c(C)c3)c2)CC1 (single isomer, unassigned) [Compound 94] on HAP1 MTAP-deleted cell line and write it down.
5.00 to 6.00

----------
target: PRMT5 (Homo sapiens, UniProt O14744); construct: purchased Viva (custom protein); assay: PRMT5 biochemical IC50 assay with MTA as cofactor; conditions: PRMT5, MTA as cofactor; read-out: MTA IC50
Sequence (O14744 whole entry): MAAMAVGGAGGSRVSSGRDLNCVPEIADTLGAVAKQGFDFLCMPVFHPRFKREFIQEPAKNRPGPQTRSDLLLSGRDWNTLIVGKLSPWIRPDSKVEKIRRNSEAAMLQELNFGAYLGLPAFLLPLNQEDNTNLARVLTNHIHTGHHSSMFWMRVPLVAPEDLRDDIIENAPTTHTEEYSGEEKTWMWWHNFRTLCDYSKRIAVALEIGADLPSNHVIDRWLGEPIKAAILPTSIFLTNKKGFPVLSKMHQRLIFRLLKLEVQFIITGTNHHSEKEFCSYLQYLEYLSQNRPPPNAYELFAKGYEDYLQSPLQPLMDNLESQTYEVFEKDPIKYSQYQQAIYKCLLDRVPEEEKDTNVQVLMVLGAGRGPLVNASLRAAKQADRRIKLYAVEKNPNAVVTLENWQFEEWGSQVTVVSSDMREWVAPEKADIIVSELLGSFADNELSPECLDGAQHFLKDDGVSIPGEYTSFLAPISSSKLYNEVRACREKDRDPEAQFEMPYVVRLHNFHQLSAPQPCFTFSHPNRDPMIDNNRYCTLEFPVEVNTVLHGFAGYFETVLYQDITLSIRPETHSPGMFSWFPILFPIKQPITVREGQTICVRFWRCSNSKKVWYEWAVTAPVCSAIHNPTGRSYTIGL
Sequence (Q9BQA1 whole entry partner): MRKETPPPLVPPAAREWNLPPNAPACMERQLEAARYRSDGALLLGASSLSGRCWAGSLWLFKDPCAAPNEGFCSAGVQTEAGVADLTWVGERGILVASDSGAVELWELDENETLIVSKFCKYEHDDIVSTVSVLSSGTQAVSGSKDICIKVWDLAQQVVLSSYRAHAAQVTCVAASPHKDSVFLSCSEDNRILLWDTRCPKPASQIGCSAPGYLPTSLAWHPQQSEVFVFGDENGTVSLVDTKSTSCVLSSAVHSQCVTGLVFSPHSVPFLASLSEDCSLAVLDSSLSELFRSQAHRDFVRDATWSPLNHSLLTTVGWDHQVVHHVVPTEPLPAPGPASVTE
pIC50: −log10 of the molar value.
measurement.kind: pIC50

Example cases with answers are listed next.
- compound: "COc1ncc(NC(=O)C(=O)N2C[C@@H](C)CC[C@@H]2c2ccc3sc(CCN4CCCC4)nc3c2)cc1C(N)=O"
  result: "> 7.30"
- compound: "Cc1cc(NC(=O)C(=O)N2CCCC[C@H]2c2cccc(N(C)C)c2)cnc1N (single isomer, unassigned)"
  result: "> 7.30"
- compound: "CCc1cc(NC(=O)C(=O)N2CC(C)CCC2c2ccc3sc(C4CCN(C)CC4C)nc3c2)cnc1N (racemic) [Compound 1098]"
  result: "> 7.30"
- compound: "C[C@H]1CC[C@@H](c2cc(F)cc(Cl)c2)N(C(=O)C(=O)Nc2cncc(C(N)=O)c2)C1 (single isomer, unassigned)"
  result: "< 6.30"
- compound: "C[C@H]1CN(C(=O)C(=O)Nc2cncc(C(N)=O)c2)[C@H](c2ccc(F)cc2)CC1(F)F (single isomer, unassigned)"
  result: "> 7.30"

Alright, here's another compound for you.
Quick one: give measured pIC50 for Cc1ccc([C@@H]2CC(F)(F)[C@@H](C)CN2C(=O)C(=O)Nc2cncc(C(N)=O)c2)cn1 (single isomer, unassigned)
< 6.30

----------
biological target: PRMT5 (Homo sapiens); construct: purchased Viva (custom protein); experiment: PRMT5 biochemical IC50 assay with no cofactor; conditions: PRMT5, no cofactor; read-out: No Cofactor/rel IC50
IC50 overview

These solved cases illustrate the format of a correct answer.
- compound: "C[C@@H]1CC[C@@H](c2ccncc2)N(C(=O)C(=O)Nc2cncc(C(N)=O)c2)C1 (single isomer, unassigned)"
  IC50: "> 500 nM"
- compound: "CCc1cc(NC(=O)C(=O)N2C[C@H](C)CC[C@H]2c2ccc(NS(C)(=O)=O)nc2)cnc1N (single isomer, unassigned)"
  IC50: "50 to 500 nM"

Now consider the entry below.
Name the value of IC50 reported for COc1ncc(NC(=O)C(=O)N2C[C@@H](C)CC[C@@H]2c2ccc3[nH]ncc3c2)cc1C(N)=O (single isomer, unassigned) when tested on PRMT5 (Homo sapiens).
< 50 nM

----------
target: PRMT5 (Homo sapiens, UniProt O14744); construct: purchased Viva (custom protein); test: PRMT5 biochemical IC50 assay with SAM as cofactor; conditions: PRMT5, SAM as cofactor; read-out: SAM IC50
measurement.kind: IC50

- molecule: "COc1ncc(NC(=O)C(=O)N2C[C@@H](C)CC[C@@H]2c2ccc3sc(C4(CN(C)C)CC4)nc3c2)cc1C(N)=O (single isomer, unassigned)"
  system: "PRMT5 (Homo sapiens, UniProt O14744)"
  IC50: "< 50 nM"
- molecule: "Cc1ncc(NC(=O)C(=O)N2C[C@H](C)CC[C@H]2c2ccc3c(c2)CCC(=O)N3)cc1Cl (racemic) [Compound 639]"
  system: "PRMT5 (Homo sapiens, UniProt O14744)"
  IC50: "50 to 500 nM"
- molecule: "Cc1cc(NC(=O)C(=O)N2C[C@H](C(N)=O)CC[C@H]2c2ccccc2)cnc1N (racemic)"
  system: "PRMT5 (Homo sapiens, UniProt O14744)"
  IC50: "50 to 500 nM"
- molecule: "Cc1cc(NC(=O)C(=O)N2C[C@@H](C)C(F)(F)C[C@@H]2c2ccc(F)cc2)cnc1N (single isomer, unassigned)"
  system: "PRMT5 (Homo sapiens, UniProt O14744)"
  IC50: "50 to 500 nM"
- molecule: "C[C@@H]1C[C@H](F)[C@@H](c2ccc(F)cc2)N(C(=O)C(=O)Nc2cncc(C(N)=O)c2)C1 (racemic)"
  system: "PRMT5 (Homo sapiens, UniProt O14744)"
  IC50: "50 to 500 nM"
- molecule: "Cc1ncc(NC(=O)C(=O)N2C[C@@H](C)CC[C@@H]2c2ccc3sc(C4CCN(C)CC4)nc3c2)cc1Cl"
  system: "PRMT5 (Homo sapiens, UniProt O14744)"
  IC50: "< 50 nM"
- molecule: "CC[C@@H]1CCN(C(=O)C(=O)Nc2cncc(C(N)=O)c2)[C@H](c2ccccc2)C1 (racemic)"
  system: "PRMT5 (Homo sapiens, UniProt O14744)"
  IC50: "50 to 500 nM"
- molecule: "C[C@H]1CC[C@H](c2ccc3sc(C4CCN(C)CC4)nc3c2)N(C(=O)C(=O)Nc2cnc(N)c([C@H]3CCOC3)c2)C1 (single isomer, unassigned)"
  system: "PRMT5 (Homo sapiens, UniProt O14744)"
  IC50: "< 50 nM"

Next:
Annotate the molecule C[C@H]1CC[C@H](c2ccc3c(c2)C(=O)NC3)N(C(=O)C(=O)Nc2cncc(C(N)=O)c2)C1 (single isomer, unassigned) with its measured IC50.
> 500 nM

----------
target: PRMT5 (Homo sapiens); construct: purchased Viva (custom protein); experiment: PRMT5 biochemical IC50 assay with no cofactor; conditions: PRMT5, no cofactor; read-out: No Cofactor/rel IC50
Quick reference: IC50 of the listed items.

Answered cases to consult:
- compound: "NC(=O)c1cncc(NC(=O)C(=O)N2C[C@@H](CO)CC[C@@H]2c2ccccc2)c1 (racemic)"
  system: "PRMT5 (Homo sapiens)"
  measurement.kind: "IC50"
  result: "> 500 nM"
- compound: "C[C@@H]1CC[C@@H](c2ccc(-c3nccs3)cc2)N(C(=O)C(=O)Nc2cncc(C(N)=O)c2)C1 (single isomer, unassigned)"
  system: "PRMT5 (Homo sapiens)"
  measurement.kind: "IC50"
  result: "50 to 500 nM"
- compound: "C[C@@H]1CC[C@H](c2ccc(O)nc2)N(C(=O)C(=O)Nc2cncc(C(N)=O)c2)C1 (single isomer, unassigned)"
  system: "PRMT5 (Homo sapiens)"
  measurement.kind: "IC50"
  result: "50 to 500 nM"
- compound: "Cc1cc(NC(=O)C(=O)N2C[C@H](C)CC[C@H]2c2ccc3c(c2)CNC3=O)cnc1N (single isomer, unassigned)"
  system: "PRMT5 (Homo sapiens)"
  measurement.kind: "IC50"
  result: "50 to 500 nM"
- compound: "C[C@@H]1CC[C@@H](c2ccc(Cl)c(C(F)(F)F)c2)N(C(=O)C(=O)Nc2cncc(C(N)=O)c2)C1 (racemic)"
  system: "PRMT5 (Homo sapiens)"
  measurement.kind: "IC50"
  result: "50 to 500 nM"
- compound: "COc1ncc(NC(=O)C(=O)N2C[C@H](C)CC[C@H]2c2ccccc2)cc1C(N)=O (single isomer, unassigned)"
  system: "PRMT5 (Homo sapiens)"
  measurement.kind: "IC50"
  result: "< 50 nM"
- compound: "CNC(=O)c1ccc([C@@H]2CC[C@@H](C)CN2C(=O)C(=O)Nc2cncc(C(N)=O)c2)s1 (single isomer, unassigned)"
  system: "PRMT5 (Homo sapiens)"
  measurement.kind: "IC50"
  result: "< 50 nM"
- compound: "Cc1cc(NC(=O)C(=O)N2C[C@@H](C)CC[C@@H]2c2ccc3sc(-c4nccn4C)nc3c2)cnc1N"
  system: "PRMT5 (Homo sapiens)"
  measurement.kind: "IC50"
  result: "< 50 nM"
- compound: "COc1ncc(NC(=O)C(=O)N2C[C@H](C)CC[C@H]2c2ccc(NC(C)=O)cc2)cc1C(N)=O (single isomer, unassigned)"
  system: "PRMT5 (Homo sapiens)"
  measurement.kind: "IC50"
  result: "< 50 nM"
- compound: "C[C@@H]1CC[C@@H](c2ccc(C(N)=O)s2)N(C(=O)C(=O)Nc2cncc(C(N)=O)c2)C1 (single isomer, unassigned)"
  system: "PRMT5 (Homo sapiens)"
  measurement.kind: "IC50"
  result: "< 50 nM"

State IC50 (PRMT5 (Homo sapiens)) of C[C@@H]1CC[C@@H](c2ccc3sc(CCN(C)C)nc3c2)N(C(=O)C(=O)Nc2cnc(N)c(C3CC3)c2)C1 (single isomer, unassigned) .
< 50 nM

Param request: IC50 | system PRMT5 (Homo sapiens) | item C[C@H]1CC[C@H](c2ccc3sc(C4CCN(C)CC4)nc3c2)N(C(=O)C(=O)Nc2cnc(N)c([C@@H]3CCOC3)c2)C1 (single isomer, unassigned)
< 50 nM

Report its IC50 with PRMT5 (Homo sapiens) as the test system: COc1ncc(NC(=O)C(=O)N2C[C@@H](C)CC[C@@H]2c2cnc3c(c2)CCC(=O)N3)cc1C(N)=O (racemic)
50 to 500 nM

System PRMT5 (Homo sapiens). Read-out IC50. Item CNc1ccc([C@@H]2CC[C@@H](C)CN2C(=O)C(=O)Nc2cncc(C(N)=O)c2)cc1 (single isomer, unassigned) . Report value.
> 500 nM

Fill in IC50 for `COc1ncc(NC(=O)C(=O)N2C[C@@H](C)CC[C@@H]2c2ccc3sc(CN(C)C)nc3c2)cc1C(N)=O` tested with PRMT5 (Homo sapiens).
< 50 nM

For PRMT5 (Homo sapiens), give IC50 of the listed compound: Cc1cc(NC(=O)C(=O)N2C[C@H](C)[C@@H](C)C[C@@H]2c2ccccc2)cnc1N (single isomer, unassigned)
> 500 nM

Report the value of IC50 obtained on PRMT5 (Homo sapiens) for [2H][C@]1(c2ccc(F)cc2)CC[C@H](C)CN1C(=O)C(=O)Nc1cncc(C(N)=O)c1 (racemic) .
50 to 500 nM

Report value only: IC50, PRMT5 (Homo sapiens), [H][C@@]1([C@]2([H])C[C@@]3(C[C@H](O)C3)C2)CC[C@@H](C)CN1C(=O)C(=O)Nc1cnc(N)c(C)c1 (mixture of isomers) [Compound 711]
> 500 nM

State measured IC50 of the compound Cc1cc(NC(=O)C(=O)N2C[C@H](C)CC[C@H]2[C@@H]2CCC[C@H](O)C2)cnc1N (single isomer, unassigned) with PRMT5 (Homo sapiens).
> 500 nM

# lookup: PRMT5 (Homo sapiens) IC50, key = C[C@H]1CC[C@H](c2ccc(O)nc2)N(C(=O)C(=O)Nc2cncc(C(N)=O)c2)C1 (single isomer, unassigned)
50 to 500 nM
